Reference source: ChEMBL document CHEMBL1201862

- target_system: Peroxisome proliferator-activated receptor gamma/Nuclear receptor coactivator 2 (Homo sapiens)
- Sequence (P37231 whole entry): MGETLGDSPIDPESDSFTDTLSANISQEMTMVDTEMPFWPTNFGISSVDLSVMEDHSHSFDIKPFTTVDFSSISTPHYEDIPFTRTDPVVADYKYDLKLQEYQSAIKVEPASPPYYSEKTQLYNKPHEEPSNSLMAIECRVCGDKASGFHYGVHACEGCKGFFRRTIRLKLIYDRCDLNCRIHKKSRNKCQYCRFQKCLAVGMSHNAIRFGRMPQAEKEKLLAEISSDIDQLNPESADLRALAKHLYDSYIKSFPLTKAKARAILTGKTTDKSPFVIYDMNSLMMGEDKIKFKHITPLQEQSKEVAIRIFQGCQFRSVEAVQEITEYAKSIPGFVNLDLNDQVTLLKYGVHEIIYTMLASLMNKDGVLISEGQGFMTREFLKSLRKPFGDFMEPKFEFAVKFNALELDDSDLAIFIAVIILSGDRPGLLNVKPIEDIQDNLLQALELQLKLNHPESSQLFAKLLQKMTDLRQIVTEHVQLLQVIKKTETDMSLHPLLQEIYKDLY
- Sequence (Q15596 whole entry, further chain): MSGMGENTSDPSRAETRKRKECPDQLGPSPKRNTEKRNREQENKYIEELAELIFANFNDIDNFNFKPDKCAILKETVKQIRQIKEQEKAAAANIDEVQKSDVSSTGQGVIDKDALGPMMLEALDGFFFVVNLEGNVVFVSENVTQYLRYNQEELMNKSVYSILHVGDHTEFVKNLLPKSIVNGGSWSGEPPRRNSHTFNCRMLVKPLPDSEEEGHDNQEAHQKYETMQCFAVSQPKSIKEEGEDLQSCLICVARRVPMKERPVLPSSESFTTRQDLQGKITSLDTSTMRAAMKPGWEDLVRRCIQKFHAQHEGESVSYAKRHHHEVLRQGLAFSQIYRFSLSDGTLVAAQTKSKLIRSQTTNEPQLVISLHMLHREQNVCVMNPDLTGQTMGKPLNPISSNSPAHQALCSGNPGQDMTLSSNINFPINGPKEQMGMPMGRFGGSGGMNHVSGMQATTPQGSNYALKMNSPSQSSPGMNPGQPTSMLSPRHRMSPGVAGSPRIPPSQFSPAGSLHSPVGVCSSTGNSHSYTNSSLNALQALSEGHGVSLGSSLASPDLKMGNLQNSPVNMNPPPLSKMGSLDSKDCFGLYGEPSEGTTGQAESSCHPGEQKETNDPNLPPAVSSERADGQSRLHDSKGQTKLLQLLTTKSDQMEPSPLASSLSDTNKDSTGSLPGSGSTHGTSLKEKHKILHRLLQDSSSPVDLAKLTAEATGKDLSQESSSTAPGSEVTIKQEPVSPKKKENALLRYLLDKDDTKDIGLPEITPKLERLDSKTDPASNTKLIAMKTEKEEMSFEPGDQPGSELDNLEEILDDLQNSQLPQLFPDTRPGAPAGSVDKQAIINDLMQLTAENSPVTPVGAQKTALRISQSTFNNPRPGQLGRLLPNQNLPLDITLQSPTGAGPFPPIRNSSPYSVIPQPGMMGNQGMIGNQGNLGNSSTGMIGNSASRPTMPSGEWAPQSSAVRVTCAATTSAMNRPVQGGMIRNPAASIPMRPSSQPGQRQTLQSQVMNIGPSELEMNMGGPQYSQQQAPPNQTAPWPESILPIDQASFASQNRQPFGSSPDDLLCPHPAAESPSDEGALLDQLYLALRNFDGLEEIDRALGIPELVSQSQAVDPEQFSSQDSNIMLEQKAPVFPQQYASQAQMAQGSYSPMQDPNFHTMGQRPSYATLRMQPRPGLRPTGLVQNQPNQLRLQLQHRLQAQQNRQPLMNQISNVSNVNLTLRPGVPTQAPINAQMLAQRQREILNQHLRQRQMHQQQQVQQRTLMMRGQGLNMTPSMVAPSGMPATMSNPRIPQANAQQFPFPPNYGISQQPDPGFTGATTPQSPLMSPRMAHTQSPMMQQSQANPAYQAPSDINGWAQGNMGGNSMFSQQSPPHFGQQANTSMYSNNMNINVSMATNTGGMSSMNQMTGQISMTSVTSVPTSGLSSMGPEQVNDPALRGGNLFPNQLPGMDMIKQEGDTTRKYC
- experiment_notes: TR-FRET dose response biochemical High Throughput Screening assay for agonists of the steroid receptor coactivator 2 (SRC-2) recruitment by the peroxisome proliferator-activated receptor gamma (PPAR gamma): non-selective agonists. [Related pubchem assays: 1297, 1032 ]
- Format: functional
attribute_measured: EC50

Incoming: Find the recorded EC50 belonging to COc1ccc(CNC(=O)CSc2nc(-c3ccccc3)cc(-c3cccs3)c2C#N)cc1 and report it.
Outgoing: 22.2 µM (not active)

Incoming: What EC50 value was documented for this molecule, CNC(=O)NC(=O)CSc1nc(-c2cccs2)c(C#N)c(=O)[nH]1 ?
Outgoing: > 79.4 µM (not active)

Incoming: # EC50 lookup, item O=C(CSc1ncnc2c1oc1ccccc12)NC1CCCCC1
Outgoing: 14.4 µM (not active)

Incoming: # EC50 lookup, item CCOC(=O)c1sc2nc(C)nc(S)c2c1C
Outgoing: 37.3 µM (not active)

Incoming: Reported EC50, molecule Cc1ccc(-n2c(S)nnc2-c2cccc(C)c2)cc1 : ____
Outgoing: 40.1 µM (not active)

Incoming: What does the record list as EC50 for O=C1CC(Sc2nnc(-c3ccccc3)o2)C(=O)N1c1ccccc1 (stereo unspecified) ?
Outgoing: 89.2 µM (not active)

* * *

- target_system: Carboxy-terminal domain RNA polymerase II polypeptide A small phosphatase 1 (Homo sapiens, UniProt Q9GZU7)
- Sequence (Q9GZU7 whole entry): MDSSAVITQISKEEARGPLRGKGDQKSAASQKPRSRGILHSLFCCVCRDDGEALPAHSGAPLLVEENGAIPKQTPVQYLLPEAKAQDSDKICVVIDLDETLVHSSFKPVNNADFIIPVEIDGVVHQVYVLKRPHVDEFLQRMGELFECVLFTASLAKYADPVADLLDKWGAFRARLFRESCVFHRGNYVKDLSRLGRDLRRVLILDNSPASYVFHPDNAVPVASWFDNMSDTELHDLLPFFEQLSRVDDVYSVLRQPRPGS
- experiment_notes: CTDSP1 inhibitors, concentration-response, biochemical, absorbance readout, ultra-high-throughput screen actives (AID 540297)
- Type: functional
Active and inactive are the calls of the source.
attribute_measured: IC50

Incoming: What IC50 value was documented for this molecule, CCN(CC)P(c1n(C)cc[n+]1C)N(CC)CC ?
Outgoing: 3.52 µM (active)

Incoming: # IC50 lookup, item CCOC(=O)C[n+]1c2n(c3ccccc31)CC(O)CS2 (centres undefined)
Outgoing: 6.53 µM (active)

Incoming: Given the entry COc1ccc(NC(=O)CN(C)C(=O)c2cc(-c3ccco3)nc3ccccc23)cc1 , report its measured IC50.
Outgoing: 2.55 µM (active)

Incoming: Can you share its IC50? I mean this molecule: COc1ccc2c(=O)c3c(=O)n(Cc4ccco4)c(-c4ccco4)nc3oc2c1
Outgoing: 4.9 µM (active)

* * *

Can you tell me EC50 for the items I'm about to list?
- experiment_notes: Luminescence Cell-Based Dose Response HTS to Identify Activators of Luciferase Translation or Activity in H4 […] Cells. [Related pubchem assays: 1829 (Project Summary), 1814 (Primary HTS)]
- Assay type: functional
Active and inactive are the calls of the source.

Incoming: Sample COC(=O)c1cc(-c2c(C)nn(-c3ccccc3)c2C)[nH]n1 — what was its EC50?
Outgoing: 11.5 µM (active)

Incoming: What EC50 value was documented for this molecule, CCc1nnc(NC(=O)c2cc(-c3ccccc3)nn2-c2ccccc2)s1 ?
Outgoing: 7.74 µM (active)

Incoming: # get_value(readout='EC50', item= C/C(=N\NC(=O)C1=NNC(=O)C1C)c1cccs1 (stereo not drawn) )
Outgoing: > 120 µM (not active)

Incoming: Endpoint output: EC50 of O=C(Cn1cc(SCc2ccccc2Cl)c2ccccc21)N1CCOCC1 . Value?
Outgoing: 8.21 µM (active)

Incoming: Consider the molecule shown here: O=C(c1cc(COc2ccc(F)cc2Cl)on1)N1C[C@H]2C[C@H]3C[C@@H](C2)C[C@H]1C3 What is its recorded EC50?
Outgoing: 26.2 µM (active)

Incoming: Return reported EC50; argument: CCCCSc1ncc(C(=O)OCC)c(N)n1
Outgoing: 0.125 µM (active)

Incoming: Name the recorded EC50 for COc1cc(/C=C2/C(=N)N3C=CSC3=NC2=O)ccc1OCCCOc1ccccc1C .
Outgoing: 58.3 µM (active)

Incoming: Which value of EC50 has been reported for Cc1ccc(NC(=O)Cc2nc(CSc3nnc(-c4ccc5c(c4)OCO5)o3)cs2)cc1 in the records?
Outgoing: 53.6 µM (active)
